result_type: flash point (°C)

For orientation, consider the following solved cases.
molecule | flash point (°C)
C=C(C)C(=O)OCCCCCCCC(C)C [8-methylnonyl 2-methylprop-2-enoate] | 121.00
O=C(O)/C=C/C(=O)O [(E)-but-2-enedioic acid] | 273.00
CCOc1ccccc1 [ethoxybenzene] | 63.00

[I] C1=CCCC1 [cyclopentene]
[II] CCOC(=O)C1CC(=O)C(=C(O)C2CC2)C(=O)C1 (stereo unspecified)
q: Of I versus II , which is the one with smaller reported flash point? Label of pick, please.
a: I
(I: -34.00 °C, II: 133.00 °C)

[A] O=[N+]([O-])c1cccc(C(F)(F)F)c1 [1-nitro-3-(trifluoromethyl)benzene]
[B] CC(C)C1CCCCC1 [propan-2-ylcyclohexane]
[C] Nc1cccc2c(N)cccc12 [naphthalene-1,5-diamine]
q: Rank items: key flash point, increasing. Submit the labels in the order that the ranking request calls for.
a: B, A, C
(B: 36.00 °C, A: 101.00 °C, C: 226.00 °C)

[1] CCCCN(CCO)CCCC [2-(dibutylamino)ethanol]
[2] C[O-].[K+] [potassium;methanolate]
[3] CCC[Si](Cl)(Cl)Cl [trichloro(propyl)silane]
q: Put the items in sequence by flash point, from largest down. Submit the labels in the order that the ranking request calls for.
a: 1, 3, 2
(1: 99.00 °C, 3: 37.00 °C, 2: 11.00 °C)

---

result_type: flash point (°C)

For orientation, consider the following solved cases.
molecule | result_unit | flash point
CCCCCCCCCC | °C | 49.8
CCC(C)CC(C)C (stereo unspecified) | °C | 3.0

[A] C=CCCCCCCCCCCCCCC
[B] CCCCCC(C)O (stereo unspecified)
q: Of A versus B , which is the one with smaller reported flash point? Label of pick, please.
a: B
(B: 59.0 °C, A: 132.0 °C)

---

result_type: flash point (°C)

compound | result_type | result_unit | assay_value
CCCCc1ccccc1 [butylbenzene] | flash point | °C | 49

[1] CC(C)CCCO
[2] CCC(Cl)Cl
q: Of the two listed items, 1 and 2 , which carries the larger flash point figure? Label of pick, please.
a: 1
(1: 51 °C, 2: 7 °C)

---

Counter-ions that a name gives are not always drawn.
result_type: flash point (°C)

For orientation, consider the following solved cases.
compound | result_unit | flash point
C#CCCCCl [5-chloro-1-pentyne] | °C | 15
Cc1cc(C)nc(C)c1 [2,4,6-trimethylpyridine] | °C | 57
CCOC(=O)/C=C/C(=O)OCC [diethyl fumarate] | °C | 91

[P] CC(O)CCC(C)O (centres undefined) [2,5-hexanediol]
[Q] C=CC(C)C [3-methyl-1-butene]
[R] CCCCCCCl [1-chlorohexane]
[S] CCC(C)(C)OC [methyl tert-pentyl ether]
[T] CN1CCCC1 [1-methylpyrrolidine]
q: Rank items: key flash point, increasing. Submit the labels in the order that the ranking request calls for.
a: Q, T, S, R, P
(Q: -57 °C, T: -18 °C, S: -11 °C, R: 26 °C, P: 101 °C)

[P] CCCCCCCCCC [n-decane]
[Q] CCC(C)C(CC)CC (centres undefined) [3-methyl-4-ethylhexane]
[R] C[C@H]1CC[C@@H](C)CC1 [cis-1,4-dimethylcyclohexane]
[S] CCCCOC [1-methoxybutane]
q: Put the items in sequence by flash point, from largest down. Submit the labels in the order that the ranking request calls for.
a: P, Q, R, S

[I] CC(C)C(=O)O [isobutyric acid]
[II] COCCCN [3-methoxypropylamine]
[III] CCC=O [propionaldehyde]
[IV] C=CCCCCCC [1-octene]
[V] Cc1ccsc1 [3-methylthiophene]
q: Put the items in sequence by flash point, from largest down. Submit the labels in the order that the ranking request calls for.
a: I, II, IV, V, III
(I: 55 °C, II: 32 °C, IV: 21 °C, V: 11 °C, III: -40 °C)

---

result_type: flash point (°C)

smiles_string | flash point, °C
Cl[SiH](Cl)c1ccccc1 | 60.00

[P] CN([Si](C)(C)C)[Si](C)(C)C
[Q] CO[Si](C)(OC)OC
q: Of P versus Q , which is the one with smaller reported flash point? Label of pick, please.
a: Q

[A] C[Si](C)(C)O[Si](C)(C)O[Si](C)(C)O[Si](C)(C)O[Si](C)(C)O[Si](C)(C)C
[B] CCCCCCC[Si](Cl)(Cl)Cl
q: Of A versus B , which is the one with smaller reported flash point? Label of pick, please.
a: B
(B: 64.00 °C, A: 102.00 °C)

---

result_type: flash point (°C)

smiles_string | result_unit | assay_value
[SiH3][SiH2][SiH3] | °C | 0.00
CC[Si](CC)(CC)CC | °C | 32.00
C=C[Si](Cl)(Cl)Cl | °C | 21.00
O=C=N[Si](N=C=O)(N=C=O)N=C=O | °C | 50.00
C=C[Si](C)(C)OCC | °C | 4.00

[a] C[Si](C)(C)Cl
[b] CCCCC=C[Si](Cl)(Cl)Cl
q: Of the two listed items, a and b , which carries the larger flash point figure? Label of pick, please.
a: b
(b: 60.00 °C, a: -18.00 °C)

[A] C[Si](Cl)(Cl)Cl
[B] CO[Si](CC(C)C)(OC)OC
[C] CCO[Si](C)(C)CCl
[D] N#CCCC[Si](Cl)(Cl)Cl
q: Put the items in sequence by flash point, from largest down. Submit the labels in the order that the ranking request calls for.
a: D, B, C, A

[A] CC[Si](Cl)(Cl)CC
[B] CCO[SiH2]CCCN
q: Of A versus B , which is the one with smaller reported flash point? Label of pick, please.
a: A
(A: 24.00 °C, B: 96.11 °C)

---

result_type: flash point (°C)

For orientation, consider the following solved cases.
compound | result_unit | assay_value
CC(C)CC(=O)CC(C)C | °C | 49
CC=O | °C | -39
Cc1cccnc1 [3-methylpyridine] | °C | 38

[A] Cc1ccc(Cl)cc1
[B] C=COCC
[C] C1=CC2CCC1C2
[D] CC(C)OC(C)C
q: Rank items: key flash point, increasing. Submit the labels in the order that the ranking request calls for.
a: B, D, C, A

---

result_type: flash point (°C)
The figure you give is taken to be in °C; do not add the unit.

For orientation, consider the following solved cases.
compound | assay_value
NCCNCCNCCN | 135.00
OCCOCCO | 124.00
Clc1c(Cl)c(Cl)c(Cl)c(Cl)c1Cl | 242.00

Consider the additional compound presented here.
q: Please list flash point recorded for the compound COC(C)=O [Methyl acetate]
a: -9.00

---

result_type: flash point (°C)

compound | result_type | assay_value
CCCCCCCOC(C)=O [heptyl acetate] | flash point | 68.00
CCCC=C(C=O)CC | flash point | 68.00
CCCCCCCCCl | flash point | 70.00

---

result_type: flash point (°C)

smiles_string | result_unit | flash point
C[Si](C)(C)O[SiH](O[Si](C)(C)C)O[Si](C)(C)C | °C | 50.00
CCO[Si](C)(C)OCC | °C | 11.00
CCO[Si](C)(C)C | °C | -27.00

[a] CC[SiH2]CC
[b] CC[Si](C)(Cl)CC
[c] CC[Si](OC)(OC)OC
[d] CCCCCCC[Si](C)(Cl)Cl
q: Rank items: key flash point, increasing. Submit the labels in the order that the ranking request calls for.
a: a, b, c, d

---

result_type: flash point (°C)

For orientation, consider the following solved cases.
smiles_string | flash point [°C]
O=[N+]([O-])c1ccccc1 | 88.00
O=C(O)CCl | 150.00

[1] OCC(Cl)Cl
[2] CCCCCC=O
q: Of 1 versus 2 , which is the one with smaller reported flash point? Label of pick, please.
a: 2

---

result_type: flash point (°C)

compound | result_type | assay_value
CCCC(C)CC(C)CC (stereo not drawn) | flash point | 41

[1] CCCC(C)(C)C(C)C
[2] CCC(C)CC(C)C (stereo not drawn)
q: Of 1 versus 2 , which is the one with smaller reported flash point? Label of pick, please.
a: 2
(2: 10 °C, 1: 15 °C)

---

Counter-ions that a name gives are not always drawn.
result_type: flash point (°C)

For orientation, consider the following solved cases.
compound | assay_value
CCCCCOCCCCC [dipentylether] | 57
O=C1C=CCCC1 [2-cyclohexen-1-one] | 34
C1CCC1 [cyclobutane] | -65
CCCCC#N [valeronitrile] | 40
CC(C)C=O [2-methyl-1-propanal] | -25
Clc1ccccn1 [2-chloropyridine] | 66
CCCCOCCOCCOCCCC [diethylene glycol dibutyl ether] | 117
CCCCCc1ccccc1 [pentylbenzene] | 65
C=C(C)c1ccccc1 [alpha-methylstyrene] | 45
C=CCC#N [3-butenenitrile] | 21

[a] CC(C)(C)C1CCCCC1 [t-butylcyclohexane]
[b] C[C@@H]1CCCC[C@H]1C (relative stereo) [trans-1,2-dimethylcyclohexane]
[c] C=CCI [3-iodo-1-propene]
[d] CCCCCCCCCC(C)O (configuration not stated) [2-undecanol]
q: Rank items: key flash point, increasing. Submit the labels in the order that the ranking request calls for.
a: b, c, a, d

[A] CCCCCCCCl [1-chloroheptane]
[B] NC1CCC1 [cyclobutylamine]
q: Of the two listed items, A and B , which carries the larger flash point figure? Label of pick, please.
a: A

[I] CC(=O)CCC(C)C [5-methyl-2-hexanone]
[II] CC1CCCCC1C (configuration not stated) [1,2-dimethylcyclohexane]
[III] Fc1ccccc1 [fluorobenzene]
[IV] CCCOC=O [propyl formate]
q: Put the items in sequence by flash point, from largest down. Submit the labels in the order that the ranking request calls for.
a: I, II, IV, III

[I] CC=NO [acetaldoxime]
[II] C1=CCCC1 [cyclopentene]
[III] C[C@@H]1CCC[C@H](C)C1 [cis-1,3-dimethylcyclohexane]
q: Put the items in sequence by flash point, from largest down. Submit the labels in the order that the ranking request calls for.
a: I, III, II
(I: 36 °C, III: 5 °C, II: -0 °C)

The measurements presented in this section are drawn from a flash point compilation (Sun et al. 2020).
